Recorded Efficacy values for a group of molecules are listed next.
Target desc: Kappa-type opioid receptor (Homo sapiens)
Sequence (P41145 whole entry): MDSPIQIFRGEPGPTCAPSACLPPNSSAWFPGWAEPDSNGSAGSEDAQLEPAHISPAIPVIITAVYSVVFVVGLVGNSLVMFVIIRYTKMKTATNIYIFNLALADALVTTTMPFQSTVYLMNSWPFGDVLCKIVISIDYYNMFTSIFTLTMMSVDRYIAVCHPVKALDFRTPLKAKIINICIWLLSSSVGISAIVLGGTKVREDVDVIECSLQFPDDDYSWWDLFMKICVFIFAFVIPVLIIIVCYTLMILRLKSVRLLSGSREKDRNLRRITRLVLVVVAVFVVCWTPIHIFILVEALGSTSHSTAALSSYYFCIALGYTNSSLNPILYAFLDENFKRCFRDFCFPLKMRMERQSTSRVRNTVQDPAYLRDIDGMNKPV
Test description: Agonist activity at human kappa opioid receptor expressed in CHO cells assessed as stimulation of [35S]GTPgammaS binding at 10 uM after 1 hr by liquid scintillation counting relative to U69593
Assay type: functional, cell-based
Numbered stars: 1 amine (or outer) side, 2 acyl side, 3 side chain; on linkers, the order of the positions; unused ones are H or OH. Bridge positions count the residues as written; N and C are the ends. Square brackets hold non-standard residues; d marks the D form. Peptide text beside a SMILES is read from it. 1Nal = N[C@@H](Cc1cccc2ccccc12)C(=O)O; 2Nal = N[C@@H](Cc1ccc2ccccc2c1)C(=O)O; CH2 = C([*:1])[*:2]

Molecule	Target desc	Units	Efficacy
NC(=O)[C@@H]1CSSC[C@@H](NC(=O)[C@@H](N)Cc2ccc(O)cc2)C(=O)N[C@@H](Cc2ccc3ccccc3c2)C(=O)N[C@@H](Cc2ccccc2)C(=O)N1 (H-Y[dC][2Nal]FC-NH2; disulfide 2-5)	Kappa-type opioid receptor (Homo sapiens)	%	7.5
NC(=O)[C@@H]1CSCSC[C@@H](NC(=O)[C@@H](N)Cc2ccc(O)cc2)C(=O)N[C@@H](Cc2ccccc2)C(=O)N[C@@H](Cc2ccc3ccccc3c2)C(=O)N1 (H-Y[dC]F[2Nal]C-NH2; linker 2-5 via CH2)	Kappa-type opioid receptor (Homo sapiens)	%	89
NC(=O)[C@@H]1CSCSC[C@@H](NC(=O)[C@@H](N)Cc2ccc(O)cc2)C(=O)N[C@@H](Cc2ccc3ccccc3c2)C(=O)N[C@@H](Cc2ccccc2)C(=O)N1 (H-Y[dC][2Nal]FC-NH2; linker 2-5 via CH2)	Kappa-type opioid receptor (Homo sapiens)	%	35
NC(=O)[C@@H]1CSSC[C@@H](NC(=O)[C@@H](N)Cc2ccc(O)cc2)C(=O)N[C@@H](Cc2ccccc2)C(=O)N[C@@H](Cc2ccc3ccccc3c2)C(=O)N1 (H-Y[dC]F[2Nal]C-NH2; disulfide 2-5)	Kappa-type opioid receptor (Homo sapiens)	%	49
NC(=O)[C@@H]1CSSC[C@@H](NC(=O)[C@@H](N)Cc2ccc(O)cc2)C(=O)N[C@@H](Cc2cccc3ccccc23)C(=O)N[C@@H](Cc2ccccc2)C(=O)N1 (H-Y[dC][1Nal]FC-NH2; disulfide 2-5)	Kappa-type opioid receptor (Homo sapiens)	%	59
NC(=O)[C@@H]1CSCSC[C@@H](NC(=O)[C@@H](N)Cc2ccc(O)cc2)C(=O)N[C@@H](Cc2cccc3ccccc23)C(=O)N[C@@H](Cc2ccccc2)C(=O)N1 (H-Y[dC][1Nal]FC-NH2; linker 2-5 via CH2)	Kappa-type opioid receptor (Homo sapiens)	%	77
NC(=O)[C@@H]1CSSC[C@@H](NC(=O)[C@@H](N)Cc2ccc(O)cc2)C(=O)N[C@@H](Cc2ccccc2)C(=O)N[C@@H](Cc2cccc3ccccc23)C(=O)N1 (H-Y[dC]F[1Nal]C-NH2; disulfide 2-5)	Kappa-type opioid receptor (Homo sapiens)	%	100
NC(=O)[C@@H]1CSCSC[C@@H](NC(=O)[C@@H](N)Cc2ccc(O)cc2)C(=O)N[C@@H](Cc2ccccc2)C(=O)N[C@@H](Cc2cccc3ccccc23)C(=O)N1 (H-Y[dC]F[1Nal]C-NH2; linker 2-5 via CH2)	Kappa-type opioid receptor (Homo sapiens)	%	87
